Sourced from PubChem BioAssay (NCI)

Assay: NCI Yeast Anticancer Drug Screen. Data for the mlh1 rad18 strain (AID 175)
Settings: S. cerevisiae mlh1 rad18 strain growth inhibition; at 5.0 µM (retest, dose inferred, filed as 0.5); active compounds read high
This is part of a sample that, as a whole, favours compounds with a hit. Of some 79,000 tested, about 15% had one in any assay.
propertyName: growth inhibition (%)
Note: unit % is implicit; provide only the numeric part.

// recorded growth inhibition for "Cc1ccc([P+](CCN2C(=O)c3ccccc3C2=O)(c2ccc(C)cc2)c2ccc(C)cc2)cc1" : 64

Note to self: growth inhibition recorded for "O=C(O)CCC(c1ccccc1)(c1ccccc1)c1ccccc1" was 64

compound CCCCCC1OC(CCCCC)OC(CCCCC)O1 (configuration not stated) , growth inhibition observed: -8

For record "COC1=C2C[C@@H](C)C[C@@H](OC)[C@@H](O)[C@H](C)/C=C(\C)[C@@H](OC(N)=O)[C@H](OC)/C=C\C=C(/C)C(=O)NC(=CC1=O)C2=O" the listed growth inhibition is 69

growth inhibition measured on "CCCCNc1cccc2ncccc12" = 21

Noted for N#CC(C(=O)C(N)=O)c1ccc(Cl)cc1Cl (configuration not stated) : its growth inhibition reads -3

Entry O=C(Nc1ccc(Cl)cc1)OCC1C2C=CC(C2)C1CO (configuration not stated) ; growth inhibition = 5

response.value for C=C1CC(O)C2C(C[Se]c3ccccc3)C(=O)O[C@@H]2C2C(=C)[C@@H](O)CC12 (some centres not stated) (field: growth inhibition) = -2

Data point: "Cc1cc(NS(=O)(=O)c2ccc(NCc3c4ccccc4nc4cc(Cl)ccc34)cc2)no1" ; growth inhibition = 9

// "CC(C)C(C)(C(=O)O)C(C)C" : growth inhibition value = 1

CC1(C)c2ccccc2-c2nc3ccccc3cc2C1Br (configuration not stated) has a reported growth inhibition of -1

Form: compound = "Cc1cc(NCCCCCCCNc2cc(C)nc3cc(N)ccc23)c2ccc(N)cc2n1" ; growth inhibition = -3

So for "C/C(=N\NC(=S)N/N=C(\C)c1ccccn1)c1ccccn1" , the logged growth inhibition turned out to be 93

Recorded result, "c1csc(-c2nccc3c2[nH]c2ccccc23)c1" , growth inhibition: -19

Reported growth inhibition for "CC(C)(C)N=C=NC(c1ccccc1)(c1ccccc1)c1ccccc1" was 11

Query "NNc1c(F)c(F)c(-c2c(F)c(F)c(NN)c(F)c2F)c(F)c1F" yields growth inhibition of 39

Data point: CC1(CO)CCCC2(C)C1CCC1CC3C=CC12C1C(=O)OC(=O)C31 (configuration not stated) ; growth inhibition = 36

---

Assay: NCI Yeast Anticancer Drug Screen. Data for the cln2 rad14 strain (AID 165);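 also: 0% = growth equal to vehicle treated cultures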
Conditions: S. cerevisiae cln2 rad14 strain, at 5.0 µM (retest, dose inferred, filed as 0.5), active compounds read high
About 79,000 compounds went through this panel and 15% of them were active in at least one assay; those are over-represented in the sample as a whole.
propertyName: growth inhibition (%)
Answer with a number only, understood to be in %.

Documented growth inhibition of "O=[N+]([O-])c1ccc(N=C(Cl)C(Cl)(c2ccccc2)c2ccccc2)cc1" : 9

Record CC1=C(C2CO2)C(=O)C(C)=C(C2CO2)C1=O (stereo unspecified) , field growth inhibition: 59

Form field growth inhibition, entry "CCn1c2nc(=O)n(C)c(=O)c-2[n+]([O-])c2cc(C)ccc21" : -2

Measured growth inhibition, "S=C(SSSSC(=S)N1CCCCC1)N1CCCCC1" : 39

growth inhibition measured on "COc1ccc(/C=N/Nc2cc(C)nc3cc4c(cc23)OCO4)c2ccccc12" = 0

Per the records, this compound ( "COC(=O)CCC(=O)c1ccc2c(c1)CC1(Cc3ccccc3C1)C2" ) has growth inhibition equal to 14

The recorded growth inhibition for entry "COC(=O)/C(=C/c1ccc(/C=C(/C(=O)O)c2ccc(OC)cc2)o1)c1ccccc1" equals 15

The value of growth inhibition measured for the compound "c1ccc2c(O[Si](Oc3cccc4ccccc34)(Oc3cccc4ccccc34)Oc3cccc4ccccc34)cccc2c1" turned out to be -5

The measured growth inhibition associated with "COc1ccc(CCN2C(=O)C(=O)N(C3CCCCC3)C2=O)cc1OC" reads -2

Summary for this compound, "COc1ccc2c(ccc[n+]2CC(=O)c2ccc(-c3ccccc3)cc2)c1" : growth inhibition is -2

The value of growth inhibition measured for the compound "Clc1cc2c(c3ncccc13)OCN(CCc1ccccc1)C2" turned out to be 1

Memo: "CCCCC#C[I+]c1ccccc1" , reported growth inhibition: 58

Notebook: "CC(=O)N(/C=C\c1sc2ccccc2[n+]1C)c1ccccc1" , growth inhibition read as 33

growth inhibition reported for this compound "CC1=C(C#N)C(=O)N(C)C(=O)C1(Cl)Cl" : 0

Looking up "Clc1cc(Cl)c2c(c1)nc(Cl)c1cc(Cl)ccc12" , I found its growth inhibition recorded as -1

Entry Cc1ccc(S(=O)(=O)NC(CCC(=O)Nc2ccccc2)C(=O)O)cc1 (stereo unspecified) , growth inhibition reported as -5

growth inhibition measured on "Cn1c(=O)c2c(nc(CCCCCCCc3nc4c(c(=O)n(C)c(=O)n4C)n3C)n2C)n(C)c1=O" = 2

Summary for this compound, CC(C)CCCC(O)CNCc1ccccc1 (stereo unspecified) : growth inhibition is 13

The compound "O=C(N/C(=C/c1ccc(Cl)cc1Cl)c1nc2ccccc2s1)c1ccccc1" showed growth inhibition equal to 14

Per the record, "O=c1cc(Cl)c(Cl)nn1-c1ccccc1" has growth inhibition of 6

growth inhibition recorded for this compound, NC(=S)C1CCC(C2CCCCC2)CC1 (stereo unspecified) , is -4

For this compound ( O=C1CC(O)CC(=O)C1=C(O)CCCCCCCCCCc1ccccc1 (stereo unspecified) ), measured growth inhibition is 24

Measured growth inhibition of "CC(=O)NNc1ccc(Cl)cc1[N+](=O)[O-]" : 5

Kindly note the recorded growth inhibition for "O=C1c2ccc(S(=O)(=O)O)cc2C(=O)c2ccc(S(=O)(=O)O)cc21" , which is 2

Reported growth inhibition for "Cc1cccc(C)c1N=Nc1c(C)nc(N)nc1-c1ccccc1" was -4

// sample CN1CC[N+](C)(Cc2ccc(C[N+]3(C)CC[N+](C)(Cc4ccc(CCl)cc4)CC3)cc2)CC1 (stereo unspecified) , its growth inhibition was -3

Per the record, NNC(=O)N/N=C(\CC1(O)C(=O)Nc2c(Cl)ccc(Cl)c21)c1ccc(F)cc1 (stereo unspecified) has growth inhibition of 64

Briefly, growth inhibition measured for "CC1=C[P+](c2ccccc2)(c2ccccc2)C=C(c2ccccc2)O1" : 42

Entry under test: "CCOC(=O)/C(=C/c1ccccc1Br)P(=O)(OCC)OCC" . Its growth inhibition was 18

Measured growth inhibition of "O=[N+]([O-])c1cc(C(F)(F)F)ccc1SSc1ccc(C(F)(F)F)cc1[N+](=O)[O-]" : 42

Noted for "COc1cc(C)c2sc3ccccc3c(=O)c2c1NCCCN(C)C" : its growth inhibition reads -4

// field: growth inhibition; key: "C/C(=C\c1ccccc1Cl)c1ccccn1" ; value = -7

Looking up "[O-]/[N+]1=[N+](\[O-])c2ccccc2CCc2ccccc21" , I see its growth inhibition listed as -1

The compound listed as "CCN(CC)CCOc1cccc2c1C(=O)c1c(O)cccc1C2=O" shows growth inhibition equal to 5

According to the records, this compound "CC1=C(C(=O)Nc2cccc3ccccc23)C(c2cccc([N+](=O)[O-])c2)C(C(=O)Nc2cccc3ccccc23)=C(C)N1" displays growth inhibition of -3

The reported growth inhibition of the compound "O=[N+]([O-])c1ccccc1N=Nc1c(O)[nH]c2ccc(S(=O)(=O)O)cc12" was 85
